readoutLabel: melting point (°C)

[
  {
    "molecule": "NC(Cc1ccccc1)C(=O)O (configuration not stated) [phenylalanine]",
    "unitAbbreviation": "°C",
    "readoutNumber": 186
  },
  {
    "molecule": "ClCc1cccc(CCl)c1 [a,a'-dichloro-m-xylene]",
    "unitAbbreviation": "°C",
    "readoutNumber": 36
  },
  {
    "molecule": "CCOC(=O)c1ccc(O)cc1 [Ethyl 4-hydroxybenzoate]",
    "unitAbbreviation": "°C",
    "readoutNumber": 117
  },
  {
    "molecule": "O=[N+]([O-])c1ccc(C(F)(F)F)cc1 [4-nitrobenzotrifluoride]",
    "unitAbbreviation": "°C",
    "readoutNumber": 40
  },
  {
    "molecule": "O=Cc1csnn1 [1,2,3-thiadiazole-4-carboxaldehyde]",
    "unitAbbreviation": "°C",
    "readoutNumber": 85
  },
  {
    "molecule": "Clc1ccc(Cl)cc1 [1,4-Dichlorobenzene]",
    "unitAbbreviation": "°C",
    "readoutNumber": 55
  },
  {
    "molecule": "BrC(Br)Br [bromoform]",
    "unitAbbreviation": "°C",
    "readoutNumber": 9
  }
]

A = CC(=O)C(=Cc1ccc(-c2cccc([N+](=O)[O-])c2)o1)C(C)=O
B = C=CC [1-propene]
C = CCCCCCCS [1-heptanethiol]
D = O=C(CO)CO [1,3-Dihydroxyacetone]
E = N#Cc1ccccc1 [Benzonitrile]
Ascending by melting point, please. The response must list the labels following the requested ordering. B, C, E, D, A
(B: -185 °C, C: -43 °C, E: -13 °C, D: 75 °C, A: 154 °C)

---

readoutLabel: melting point (°C)

// below: answered molecules
[
  {
    "molecule": "CSCC[C@H](NC(C)=O)C(=O)O [N-Acetyl-L-methionine]",
    "readoutLabel": "melting point",
    "unitAbbreviation": "°C",
    "readoutNumber": 106
  },
  {
    "molecule": "CC(N)CCc1ccccc1 (centres undefined) [3-amino-1-phenylbutane]",
    "readoutLabel": "melting point",
    "unitAbbreviation": "°C",
    "readoutNumber": -50
  },
  {
    "molecule": "O=Cc1ccc(-c2ccccc2)cc1 [biphenyl-4-carboxaldehyde]",
    "readoutLabel": "melting point",
    "unitAbbreviation": "°C",
    "readoutNumber": 59
  }
]

a = CC[C@H]1OC(=O)[C@H](C)[C@@H](O[C@H]2C[C@@](C)(OC)[C@@H](O)[C@H](C)O2)[C@H](C)[C@@H](O[C@@H]2O[C@H](C)C[C@H](N(C)C)[C@H]2O)[C@](C)(O)C[C@@H](C)CN(C)[C@H](C)[C@@H](O)[C@]1(C)O
b = CCC(=O)OC [Methyl propionate]
c = CC(C)[C@H](N)C(=O)O [L-Valine]
d = Cc1ccc(C(=O)O)cc1Br [3-bromo-4-methylbenzoic_acid]
Ascending by melting point, please. The response must list the labels following the requested ordering. b, a, d, c

---

readoutLabel: melting point (°C)

// below: answered compounds
[
  {
    "compound": "Oc1ccnc2ccccc12 [4-hydroxyquinoline]",
    "melting point, °C": 203
  },
  {
    "compound": "O=C(O)c1ccc(Cl)c([N+](=O)[O-])c1",
    "melting point, °C": 183
  },
  {
    "compound": "O=[N+]([O-])c1cccc(O)c1",
    "melting point, °C": 96
  },
  {
    "compound": "Cc1ccc(C)c(C)c1",
    "melting point, °C": -43.8
  },
  {
    "compound": "C=CC(N)=O [acrylamide]",
    "melting point, °C": 84
  }
]

A = CCOC(=O)CC(=O)OCC [diethyl malonate]
B = CCOC(=O)CC [ethyl propionate]
C = NC(=O)CCCCC(N)=O [Adipamide]
D = Cc1cc(C)n(C)n1
Highest melting point first, then in falling order down to the smallest. The response must list the labels following the requested ordering. C, D, A, B

---

readoutLabel: melting point (°C)

// below: answered compounds
[
  {
    "compound": "Cc1cccc(C)c1O [2,6-dimethylphenol]",
    "readoutNumber": 46
  },
  {
    "compound": "CCOC(=O)c1ccc2c(c1)no[n+]2[O-] [ethyl benzofuroxan-5-carboxylate]",
    "readoutNumber": 67
  },
  {
    "compound": "O=Cc1ccc2c(c1)OCCO2 [1,4-benzodioxane-6-carboxaldehyde]",
    "readoutNumber": 50
  },
  {
    "compound": "C=C(C)C(=O)OC [Methyl methacrylate]",
    "readoutNumber": -48
  }
]

I = c1ccc(CCc2ccc(CCc3ccccc3)cc2)cc1 [1,4-bis(2-phenylethyl)benzene]
II = C=Cc1ccccc1C(N)=O [o-vinylbenzamide]
III = CCC(=O)O [propanoic_acid]
IV = CCCCC(CC)COP(=O)(OCC(CC)CCCC)OCC(CC)CCCC (stereo unspecified) [Tris(2-ethylhexyl) phosphate]
V = Cc1ccc(N)c(Br)c1 [2-bromo-4-methylaniline]
Highest melting point first, then in falling order down to the smallest. The response must list the labels following the requested ordering. II, I, V, III, IV

---

readoutLabel: melting point (°C)

// below: answered molecules
[
  {
    "molecule": "CO/C(C)=C(\\C#N)c1ccccc1[N+](=O)[O-]",
    "readoutNumber": 68
  },
  {
    "molecule": "Cc1ccc(C)c2c1C(=O)OC2O (centres undefined) [3-hydroxy-4,7-dimethyl-2-benzofuran-1(3H)-one]",
    "readoutNumber": 158
  },
  {
    "molecule": "COc1ccc(OC)cc1 [p-dimethoxybenzene]",
    "readoutNumber": 60
  },
  {
    "molecule": "O=C(Oc1ccccc1)c1ccccc1C(=O)Oc1ccccc1 [diphenyl phthalate]",
    "readoutNumber": 75
  },
  {
    "molecule": "O=C(O)Cc1cccc([N+](=O)[O-])c1",
    "readoutNumber": 119
  },
  {
    "molecule": "Nc1ccc(I)cc1 [p-iodoaniline]",
    "readoutNumber": 63
  }
]

P = COC1(OC)CCC2(C)C3CCC4(C)CCCC4(O)C3CCC2(C)C1 (centres undefined)
Q = O=C(O)c1ccc2cc(O)ccc2c1 [6-hydroxy-2-naphthoic acid]
R = C=C1[C@@H]2CC[C@@H](C2)C1(C)C
Ascending by melting point, please. The response must list the labels following the requested ordering. R, P, Q

P = COc1cccc(OC)c1P(c1c(OC)cccc1OC)c1c(OC)cccc1OC
Q = CC(=O)Oc1ccc([N+](=O)[O-])cc1 [p-nitrophenyl_acetate]
R = COB(OC)OC [trimethyl borate]
S = C1=C\CCCC\C=C/1
Ascending by melting point, please. The response must list the labels following the requested ordering. S, R, Q, P
(S: -53 °C, R: -34 °C, Q: 78 °C, P: 146 °C)

1 = O=C(O)[C@@]1(O)CC(O)[C@H](O)[C@H](O)C1 (some centres undefined)
2 = N#CCC(=O)c1ccccc1Cl
Just tell me: smaller melting point value, 1 or 2 ? Selection: enter the item's label. 2

1 = O=C1C=C(NCCc2ccccn2)C(=O)c2ccccc21 [2-[(2-pyridin-2-ylethyl)amino]naphthalene-1,4-dione]
2 = Cc1cc(=O)oc2cc(O)ccc12
3 = O=Cc1c(Cl)cccc1Cl
4 = Cc1ccc(O)cc1
Highest melting point first, then in falling order down to the smallest. The response must list the labels following the requested ordering. 2, 1, 3, 4
(2: 189 °C, 1: 129 °C, 3: 71 °C, 4: 34 °C)

---

readoutLabel: melting point (°C)

[
  {
    "compound": "ClC1=C(Cl)C2(Cl)C3C4CC(C5OC45)C3C1(Cl)C2(Cl)Cl (stereo unspecified) [Endrin]",
    "unitAbbreviation": "°C",
    "melting point": 210
  },
  {
    "compound": "CC(=O)Oc1ccc([N+](=O)[O-])cc1 [4-nitrophenyl acetate]",
    "unitAbbreviation": "°C",
    "melting point": 78
  },
  {
    "compound": "N#Cc1ccc(O)cc1 [4-hydroxybenzonitrile]",
    "unitAbbreviation": "°C",
    "melting point": 112
  }
]

a = CCc1ncc[nH]1
b = CCCCCCCCCC=O
a or b : whose melting point is greater? Selection: enter the item's label. a
(a: 82 °C, b: -5 °C)

---

readoutLabel: melting point (°C)

// below: answered molecules
[
  {
    "molecule": "O=C(O)c1ccccc1 [benzoic acid]",
    "melting point (°C)": 122
  },
  {
    "molecule": "Nc1ccc(N)cc1 [p-phenylenediamine]",
    "melting point (°C)": 140
  }
]

a = O=[N+]([O-])c1c(O)cccc1O [2-nitroresorcinol]
b = CC(=O)OC1CCC2(C)C(CCC3C2CCC2(C)C3CCC2(C)CCc2ccccc2)C1 (stereo unspecified) [17-methyl-21-phenylpregnan-3-yl acetate]
a or b : whose melting point is greater? Selection: enter the item's label. b
(b: 135 °C, a: 83 °C)

1 = CC(=O)C1=C2C=CCC=C2N=C1 [3-Acetylindole]
2 = O=C(O)Cc1ccccc1Cl [2-chlorophenylacetic acid]
Just tell me: smaller melting point value, 1 or 2 ? Selection: enter the item's label. 2
(2: 96 °C, 1: 194 °C)

P = OCC#CCO [2-butyne-1,4-diol]
Q = c1ccc2nc3ccccc3nc2c1 [phenazine]
R = C=CCCCCCCCCCCCCC [1-pentadecene]
S = C=Cc1ccc(C)cc1 [1-Methyl-4-vinylbenzene]
Ascending by melting point, please. The response must list the labels following the requested ordering. S, R, P, Q
